B1: Azoarcus group I ribozyme (parent)
chain: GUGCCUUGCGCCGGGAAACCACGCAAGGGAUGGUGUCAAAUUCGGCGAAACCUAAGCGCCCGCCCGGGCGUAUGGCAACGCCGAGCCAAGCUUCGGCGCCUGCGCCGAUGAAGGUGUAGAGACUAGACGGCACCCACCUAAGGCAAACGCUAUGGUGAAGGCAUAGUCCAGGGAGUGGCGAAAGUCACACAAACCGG

# Variants of: B1
# Test: reverse-splicing fitness (ratio to wild type); higher = more active; in vitro selection; Mg2+ level not given
Quantity Name: reverse-splicing fitness
Quick one: just the number, no unit, thanks!

Recorded reverse-splicing fitness, per entry:
C82A A111U A145G C150U U176G; 0.0191
C82A A120U A145U C150A U176G; 0.00276
C82G A120U U176G; 0.0201

Which value of reverse-splicing fitness has been reported for C82U A145C C150A U176A in the records? 0.031

Which value of reverse-splicing fitness has been reported for C82G A111C A120C A145G C169G in the records? 0.00771

Which value of reverse-splicing fitness has been reported for C82A A111G A120C A145G C150G C169A U176A in the records? 0.0145

Which value of reverse-splicing fitness has been reported for C82G A111G A120G C150U C169A U176C in the records? 0.0197

Which value of reverse-splicing fitness has been reported for A145U C150U C169A U176G in the records? 0.00551
